Biological target: UniProt:P08183
Sequence (P08183 whole entry): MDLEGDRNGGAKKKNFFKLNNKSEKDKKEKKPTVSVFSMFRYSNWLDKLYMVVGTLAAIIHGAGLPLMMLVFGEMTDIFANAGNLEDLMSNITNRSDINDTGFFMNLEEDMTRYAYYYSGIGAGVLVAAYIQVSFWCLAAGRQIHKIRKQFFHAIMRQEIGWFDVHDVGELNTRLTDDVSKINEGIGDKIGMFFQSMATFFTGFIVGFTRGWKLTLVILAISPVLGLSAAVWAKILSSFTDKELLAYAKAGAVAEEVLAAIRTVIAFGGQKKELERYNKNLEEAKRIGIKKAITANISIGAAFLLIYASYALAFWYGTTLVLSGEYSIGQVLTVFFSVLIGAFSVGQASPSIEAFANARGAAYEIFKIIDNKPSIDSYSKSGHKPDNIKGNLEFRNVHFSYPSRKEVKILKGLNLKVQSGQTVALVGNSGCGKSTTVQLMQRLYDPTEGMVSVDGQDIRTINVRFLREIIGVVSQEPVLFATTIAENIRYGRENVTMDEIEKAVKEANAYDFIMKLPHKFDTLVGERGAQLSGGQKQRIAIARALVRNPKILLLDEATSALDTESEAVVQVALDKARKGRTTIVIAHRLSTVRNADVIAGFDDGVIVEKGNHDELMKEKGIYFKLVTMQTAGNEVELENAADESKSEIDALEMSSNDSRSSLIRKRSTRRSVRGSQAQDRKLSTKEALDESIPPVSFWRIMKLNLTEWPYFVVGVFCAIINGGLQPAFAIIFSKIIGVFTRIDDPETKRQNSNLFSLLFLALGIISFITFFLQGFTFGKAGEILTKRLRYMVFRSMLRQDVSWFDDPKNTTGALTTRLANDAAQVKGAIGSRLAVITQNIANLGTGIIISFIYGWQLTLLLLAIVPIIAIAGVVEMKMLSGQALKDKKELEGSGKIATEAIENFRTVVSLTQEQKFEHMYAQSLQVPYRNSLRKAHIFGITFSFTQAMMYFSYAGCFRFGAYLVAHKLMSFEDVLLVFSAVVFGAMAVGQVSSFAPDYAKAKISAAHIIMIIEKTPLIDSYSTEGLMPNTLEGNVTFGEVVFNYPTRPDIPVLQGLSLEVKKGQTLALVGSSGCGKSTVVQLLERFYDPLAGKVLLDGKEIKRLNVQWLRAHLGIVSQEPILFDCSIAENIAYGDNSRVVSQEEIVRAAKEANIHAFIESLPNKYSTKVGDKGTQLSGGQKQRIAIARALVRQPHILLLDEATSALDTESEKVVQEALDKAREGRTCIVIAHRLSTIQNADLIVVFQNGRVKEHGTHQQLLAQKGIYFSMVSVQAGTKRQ
Assay: Modulation of human ABCB1 expressed in mouse L5178Y cells assessed as fluorescence activity ratio at 20 uM pretreated for 10 mins followed by rhodamine 123 addition and measured after 20 mins by flow cytometry (reference value: 1.01)
Format: cell-based
The threshold is 40. Values of Ratio beneath it are tagged fulfilled; values meeting or exceeding it are tagged not fulfilled.

As a guide, the following entries are already answered.
>>> group_label("C=C(CC[C@@H](C)[C@H]1CC[C@@]2(C)C(=O)[C@@]3(CC[C@]12C)[C@@H](O)C[C@H]1[C@H](C)[C@@H](O)CC[C@@]13C)C(C)C")
"not fulfilled"
>>> group_label("CCCC(=O)O/N=C1\\CC[C@@]2(C)[C@@H]3C[C@H]4OC(=O)C(C)=C4C=C3CC[C@@H]2C1(C)C")
"fulfilled"
>>> group_label("CC1(C)CC[C@]2(C(=O)O)CC[C@]3(C)C(=CC[C@@H]4[C@@]5(C)CC[C@H](O)C(C)(C)[C@@H]5CC[C@]43C)[C@@H]2C1")
"fulfilled"
>>> group_label("CC1=C2C=C3CC[C@@H]4C(C)(C)/C(=N/OC(=O)c5cccs5)CC[C@@]4(C)[C@@H]3C[C@H]2OC1=O")
"fulfilled"

Determine if CC1=C2C=C3CC[C@@H]4C(C)(C)[C@@H](O)CC[C@@]4(C)[C@@H]3C[C@H]2OC1=O [HELIOSCOPINOLIDE B] shows Ratio strictly lower than 40.
fulfilled

Determine if CC1=C2C=C3CC[C@@H]4C(C)(C)/C(=N/OC(=O)c5ccccc5)CC[C@@]4(C)[C@@H]3C[C@H]2OC1=O shows Ratio strictly lower than 40.
not fulfilled

Determine if C=C(C)[C@H](O)CC[C@@H](C)[C@H]1CC[C@@]2(C)[C@@H]3CC[C@H]4C(C)(C)[C@@H](O)CC[C@@]45C[C@@]35CC[C@]12C shows Ratio strictly lower than 40.
not fulfilled

Determine if CC1=C2C=C3CC[C@@H]4C(C)(C)/C(=N/O)CC[C@@]4(C)[C@@H]3C[C@H]2OC1=O shows Ratio strictly lower than 40.
fulfilled

Determine if C[C@H](C/C=C/C(C)(C)O)[C@H]1CC[C@@]2(C)[C@@H]3CC[C@H]4C(C)(C)[C@@H](O)CC[C@@]45C[C@@]35CC[C@]12C shows Ratio strictly lower than 40.
not fulfilled

Determine if C=C(CC[C@@H](C)[C@H]1CC[C@@]2(C)C3=C(C(=O)C[C@]12C)[C@@]1(C)CC[C@H](O)[C@@H](C)[C@@H]1CC3=O)C(C)C shows Ratio strictly lower than 40.
fulfilled

Determine if CC(=O)O/N=C1\CC[C@@]2(C)[C@@H]3C[C@H]4OC(=O)C(C)=C4C=C3CC[C@@H]2C1(C)C shows Ratio strictly lower than 40.
fulfilled

Determine if CC[C@H](CC[C@@H](C)[C@H]1CC[C@H]2[C@@H]3CCC4=CC(=O)CC[C@]4(C)[C@H]3CC[C@]12C)C(C)C shows Ratio strictly lower than 40.
fulfilled

Determine if CC1=C2C=C3CC[C@@H]4C(C)(C)C(=O)CC[C@@]4(C)[C@@H]3C[C@H]2OC1=O [HELIOSCOPINOLIDE E] shows Ratio strictly lower than 40.
fulfilled

---

Biological target: UniProt:P08183
Assay: Modulation of human ABCB1 expressed in mouse L5178Y cells assessed as potentiation of doxorubicin-induced cytotoxicity by measuring combination index at ED50 measured after 48 hrs by MTT assay
Format: cell-based
MEASURE_NAME: CI
Reply with the value as a number alone.

Example results:
>>> numeric_result("CC1=C2C=C3CC[C@@H]4C(C)(C)C(=O)CC[C@@]4(C)[C@@H]3C[C@H]2OC1=O [HELIOSCOPINOLIDE E]")
0.367
>>> numeric_result("CC1=C2C=C3CC[C@@H]4C(C)(C)/C(=N/O)CC[C@@]4(C)[C@@H]3C[C@H]2OC1=O")
0.477

As a next step, examine the compound that follows.
Give the measured CI of CC1=C2C=C3CC[C@@H]4C(C)(C)/C(=N/OC(=O)c5ccco5)CC[C@@]4(C)[C@@H]3C[C@H]2OC1=O .
0.454
